# test system: T1, PUF4 RNA-binding domain (Saccharomyces cerevisiae, UniProt P25339 537-888)
# T1 sequence: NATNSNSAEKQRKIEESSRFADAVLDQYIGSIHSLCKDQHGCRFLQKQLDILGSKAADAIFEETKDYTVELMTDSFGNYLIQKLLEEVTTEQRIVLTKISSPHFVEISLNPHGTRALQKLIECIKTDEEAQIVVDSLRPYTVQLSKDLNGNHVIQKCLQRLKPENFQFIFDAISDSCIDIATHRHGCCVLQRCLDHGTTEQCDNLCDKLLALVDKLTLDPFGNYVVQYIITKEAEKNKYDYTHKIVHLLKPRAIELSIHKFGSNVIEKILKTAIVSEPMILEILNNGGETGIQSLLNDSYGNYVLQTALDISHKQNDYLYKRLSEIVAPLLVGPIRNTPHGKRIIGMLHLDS
# protocol details: Mg; RNA-MaP; 20 mM Na-HEPES pH 7.4, 30 mM KOAc, 0.75 mM MgCl2, 0.1% Tween-20, 5% glycerol, 0.1 mg/mL BSA, 2 mM DTT; 25 C; 0.0125-409.6 nM protein
# test parameters: tags: N-His6-TEV cleaved; C-SNAP kept, Cy3B-labelled; label: tethered on chip by stalled RNA polymerase
Provide the reported pKd of each item.
One number for each entry, as −log10 of the molar value.

Known results for binders:
>  <binder>
Ic_S4_P5E.1_K5.1_C5.1_H5.1_A5.1_[T5C]_[T6C]_F5.1_[T9A]_[A10C]_T5.1 (ssRNA) RNA: UUUGACAACUGAUCGUUCUUUCUUGUACCAUACUUCUUUCUCGAUCAGUUGUCUUU

>  <numeric value>
8.57

$$$$
>  <binder>
Ia_S4_P4E.1_K4.1_C4.1_H4.1_A4.1_F4.1_[A9G]_T4.1 (ssRNA) RNA: UUUGACAACUGAUCGUUCUUUCUUGUAUAUUGUUCUUUCUCGAUCAGUUGUCUUU

>  <numeric value>
8.51

$$$$
>  <binder>
Id_ii_S2_P5E.4_K5.3_C5.2_[C-2A]_[T-1A]_H5.3_A5.1_F5.1_T5.2 (ssRNA) RNA: UUUGAUUAAUAUGAUAUCGUUCUUUCUAAACACUUAUUAUAUUCUUUCUCGAUAUCAUAUUAAUCUUU

>  <numeric value>
6.06

$$$$
>  <binder>
Id_ii_S2_P3E.3_K3.2_C3.2_[C-2T]_[T-1C]_H3.2_A3.1_F3.1_T3.2_[T9A]_[A10T] (ssRNA) RNA: UUUGAUUAAUAUGAUAUCGUUCUUUCUUCUAUAUAUAAUUUCUUUCUCGAUAUCAUAUUAAUCUUU

>  <numeric value>
6.83

$$$$
>  <binder>
UCUCUUUAUGUAUAUAUUUCUCUU (ssRNA) [Id_ii_S1_P3E.2_K3.1_C3.2_[C-2T]_[T-1A]_H3.1_A3.1_F3.1_T3.2_[A10T]]

>  <numeric value>
8.04

$$$$
>  <binder>
UCUCUUUGUAAUUUAUCUCUU (ssRNA) [Ic_S1_P4E.1_K4.1_C4.1_H4.1_A4.1_[T5A]_[A6T]_F4.1_T4.1]

>  <numeric value>
8.42

$$$$
>  <binder>
Ic_S4_P5E.1_K5.1_C5.1_H5.1_A5.1_[T5C]_[T6G]_[A7T]_F5.1_[T8C]_[T9G]_[A10T]_T5.1 (ssRNA) RNA: UUUGACAACUGAUCGUUCUUUCUUGUACGUCGUUUCUUUCUCGAUCAGUUGUCUUU

>  <numeric value>
6.78

$$$$
>  <binder>
UCUCUUUGUAAAAAUCUCUU (ssRNA) [Ic_S1_P3E.1_K3.1_C3.1_H3.1_A3.1_[T5A]_F3.1_[T7A]_T3.1]

>  <numeric value>
6.44

$$$$

For every item in the list below, what is its measured pKd?
1. Ie_S2_P5E.1_K5.1_C5.1_H5.1_A5.1_F5.1_[+9TCTC]_T5.1 (ssRNA) RNA: UUUGAUUAAUAUGAUAUCGUUCUUUCUUGUAUUAUUUCUCAUUCUUUCUCGAUAUCAUAUUAAUCUUU
2. Id_ii_S2_P5E.3_K5.2_C5.2_[C-2G]_H5.2_A5.1_F5.1_T5.2_[T11C]_[A12G] (ssRNA) RNA: UUUGAUUAAUAUGAUAUCGUUCUUUCUGUUAUAUUAUUACGUUCUUUCUCGAUAUCAUAUUAAUCUUU

7.99
7.16

Give the measured pKd of Ic_S4_P3E.1_K3.1_C3.1_H3.1_A3.1_[T5C]_F3.1_[A8T]_T3.1 (ssRNA) RNA: UUUGACAACUGAUCGUUCUUUCUUGUACAUUUUCUUUCUCGAUCAGUUGUCUUU .
8.64
